Hey, just so you know, these numbers are from patent US20250171495A1.

Target: TMPRSS2 (Homo sapiens)
Assay: Fluorogenic kinetic enzyme inhibitor assay, TMPRSS2
Format: biochemical
Parameters: purchased Cusabio Technology CSB-YP023924HU
Settings: read-out: TMPRSS2 IC50

- substanceSmiles: "N=C(N)NCCC[C@H](NC(=O)[C@H](Cc1cccc2ccccc12)NC(=O)OCC1c2ccccc2-c2ccccc21)C(=O)c1nc2ccccc2s1"
  measuredOn: "TMPRSS2 (Homo sapiens)"
  reportedRelation: ">"
  IC50 (nM): 20000
- substanceSmiles: "N=C(N)NCCC[C@H](NC(=O)[C@H](Cc1ccccc1)NC(=O)[C@H](CCC(N)=O)NS(=O)(=O)c1ccccc1)C(=O)c1nc2ccccc2s1"
  measuredOn: "TMPRSS2 (Homo sapiens)"
  reportedRelation: "="
  IC50 (nM): 1.02
- substanceSmiles: "CN(C)[C@@H](CCC(N)=O)C(=O)N[C@@H](Cc1ccccc1)C(=O)N[C@H](CCCNC(=N)N)C(=O)c1nc2ccccc2s1"
  measuredOn: "TMPRSS2 (Homo sapiens)"
  reportedRelation: "="
  IC50 (nM): 18.4

* * *

# IC50 annotations
Target: HGFA (Homo sapiens, UniProt Q04756)
Construct: purchased R&D Systems 1514-SE-010
Sequence (Q04756 408-655 limits assumed): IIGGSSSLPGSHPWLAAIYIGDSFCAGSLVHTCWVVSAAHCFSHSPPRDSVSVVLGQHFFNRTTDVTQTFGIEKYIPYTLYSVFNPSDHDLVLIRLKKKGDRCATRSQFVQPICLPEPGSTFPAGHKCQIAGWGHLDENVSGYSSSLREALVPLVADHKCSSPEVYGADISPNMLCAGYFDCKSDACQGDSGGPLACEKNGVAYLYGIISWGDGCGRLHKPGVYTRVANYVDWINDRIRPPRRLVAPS
Sequence (Q04756 373-407 partner limits assumed): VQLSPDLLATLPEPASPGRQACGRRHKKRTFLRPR
Assay: Fluorogenic kinetic enzyme inhibitor assay, HGFA
Assay type: biochemical
Settings: 30 min incubation, Boc-QLR-AMC at Km; read-out: HGFA IC50

- compound: "CC(=O)N[C@H]1Cc2ccc(cc2)OCCCC[C@@H](C(=O)N[C@@H](CCCNC(=N)N)C(=O)c2nc3ccccc3s2)NC(=O)[C@H](CC(C)C)NC1=O"
  IC50: "40 nM"
- compound: "CC(=O)N[C@H]1Cc2cccc(c2)Oc2ccc(cc2)C[C@@H](C(=O)N[C@@H](CCCNC(=N)N)C(=O)c2nc3ccccc3s2)NC(=O)[C@H](CC(C)C)NC1=O [VD5123B]"
  IC50: "3980 nM"
- compound: "CC(=O)N[C@H]1Cc2ccc(cc2)OC/C=C\\C[C@@H](C(=O)N[C@@H](CCCNC(=N)N)C(=O)c2nc3ccccc3s2)NC(=O)[C@@H](Cc2c[nH]c3ccccc23)NC1=O"
  IC50: "4.58 nM"

* * *

Biological target: matriptase (Homo sapiens, UniProt Q9Y5Y6)
Construct: purchased R&D Systems 3946-SEB-010
Sequence (Q9Y5Y6 615-855 limits assumed): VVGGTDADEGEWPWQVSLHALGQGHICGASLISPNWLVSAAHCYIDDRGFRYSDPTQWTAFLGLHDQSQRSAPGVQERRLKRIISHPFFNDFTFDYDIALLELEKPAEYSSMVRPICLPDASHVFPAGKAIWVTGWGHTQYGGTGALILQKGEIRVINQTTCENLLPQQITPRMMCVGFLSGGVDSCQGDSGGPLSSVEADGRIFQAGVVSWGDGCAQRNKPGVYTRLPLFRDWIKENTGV
Experiment: Fluorogenic kinetic enzyme inhibitor assay, matriptase
Assay type: biochemical
Numbered stars: 1 amine (or outer) side, 2 acyl side, 3 side chain; on linkers, the order of the positions; unused ones are H or OH. Square brackets hold non-standard residues; d marks the D form. Peptide text beside a SMILES is read from it. X1 = N=C(N)NCCC[C@H](N[*:1])C(=O)c1nc2ccc(C(=O)[*:2])cc2s1; Phe(4-NO2) = N[C@@H](Cc1ccc([N+](=O)[O-])cc1)C(=O)O
measuredQuantity: log10(IC50) (log10 of the value in nM)

- compound: "C=CCOC(=O)CC[C@H](NC(=O)[C@H](CCC(C)C)NC(C)=O)C(=O)N[C@@H](Cc1ccc(F)cc1)C(=O)N[C@@H](CCCNC(=N)N)C(=O)c1nc2ccccc2s1 [MF1140]"
  log10(IC50): 0.46
- compound: "CC(=O)N1c2ccccc2C[C@H]1C(=O)N[C@@H](CCC(=O)OC1CCCCC1)C(=O)N[C@@H](Cc1ccc(F)cc1)C(=O)N[C@@H](CCCNC(=N)N)C(=O)c1nc2ccccc2s1 [MF1065]"
  log10(IC50): 0.54
- compound: "CCC(C)[C@H](NC(C)=O)C(=O)N[C@@H](CCC(N)=O)C(=O)N[C@@H](Cc1c[nH]c2ccccc12)C(=O)N[C@@H](CCCNC(=N)N)C(=O)c1nc2ccccc2s1 (some centres unmarked) [MM3187]"
  log10(IC50): 0.09
- compound: "CC(=O)N[C@@H](CCC(C)C)C(=O)N[C@@H](CCC(=O)OC1CCCCC1)C(=O)N[C@@H](Cc1ccc(F)cc1)C(=O)N[C@@H](CCCNC(=N)N)C(=O)c1nc2ccccc2s1 [MF1125]"
  log10(IC50): 0.48
- compound: "CC(=O)N[C@@H](CO)C(=O)N[C@@H](Cc1ccc([N+](=O)[O-])cc1)C(=O)N[C@@H](CC(C)C)C(=O)N[C@@H](CCCNC(=N)N)C(=O)c1nc2ccc(C(=O)N[C@H](C(N)=O)C(C)C)cc2s1 [MM1180] (Ac-S[Phe(4-NO2)]L[X1]V-NH2)"
  log10(IC50): 2.12

* * *

Molecular target: TMPRSS2 (Homo sapiens, UniProt O15393)
Sequence (O15393 106-492 limits assumed): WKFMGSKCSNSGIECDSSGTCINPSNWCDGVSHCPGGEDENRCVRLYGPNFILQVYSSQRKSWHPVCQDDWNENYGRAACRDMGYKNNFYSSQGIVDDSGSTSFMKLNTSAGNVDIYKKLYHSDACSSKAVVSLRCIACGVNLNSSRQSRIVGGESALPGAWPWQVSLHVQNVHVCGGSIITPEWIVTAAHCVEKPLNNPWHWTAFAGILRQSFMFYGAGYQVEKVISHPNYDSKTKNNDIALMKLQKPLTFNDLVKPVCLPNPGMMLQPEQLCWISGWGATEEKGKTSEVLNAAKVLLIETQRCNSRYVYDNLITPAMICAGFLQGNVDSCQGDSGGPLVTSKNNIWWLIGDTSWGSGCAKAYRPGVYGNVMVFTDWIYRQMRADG
Experiment: Fluorogenic kinetic enzyme inhibitor assay, TMPRSS2
Type: biochemical
Design: purchased Cusabio Technology CSB-YP023924HU
Conditions: read-out: TMPRSS2 IC50
Quick rule for you: IC50 under 1 nM gets Condition met, anything else gets Condition not met.

- compound: "N=C(N)NCCC[C@H](NC(=O)[C@H](Cc1cccc(Cl)c1)NC(=O)OCC1c2ccccc2-c2ccccc21)C(=O)c1nc2ccccc2s1 [MF1134]"
  labelClass: "Condition not met"
- compound: "N=C(N)NCCC[C@H](NC(=O)[C@H](Cc1ccc2ccccc2c1)NC(=O)OCC1c2ccccc2-c2ccccc21)C(=O)c1nc2ccccc2s1 [MF2012]"
  labelClass: "Condition not met"
- compound: "CCC(C)[C@H](NC(C)=O)C(=O)N[C@@H](CCC(N)=O)C(=O)N[C@@H](C)C(=O)N[C@@H](CCCNC(=N)N)C(=O)c1nc2ccccc2s1 (stereo partly drawn) [MM3178]"
  labelClass: "Condition met"
- compound: "CC(C)(C)C[C@H](NC(=O)OCc1ccccc1)C(=O)N[C@@H](CCCNC(=N)N)C(=O)c1nc2ccccc2s1 [MF2009]"
  labelClass: "Condition not met"
- compound: "CC(=O)N[C@@H](Cc1c[nH]c2ccccc12)C(=O)N[C@@H](CC(C)C)C(=O)N[C@@H](CCCNC(=N)N)C(=O)c1nc2ccccc2s1 [PK-1-104]"
  labelClass: "Condition not met"
- compound: "CCC(C)[C@H](NC(C)=O)C(=O)N[C@@H](CCC(=O)O)C(=O)N[C@@H](Cc1ccccc1)C(=O)N[C@@H](CCCNC(=N)N)C(=O)c1nc2ccccc2s1 (stereo partly drawn) [MM4037-2]"
  labelClass: "Condition met"

* * *

Target: HGFA (Homo sapiens)
Construct: purchased R&D Systems 1514-SE-010
Experiment: Fluorogenic kinetic enzyme inhibitor assay, HGFA
Assay type: biochemical
Rule for this label: 1.0 means IC50 is less than 300 nM; 0.0 means IC50 is at least 300 nM.

- compound: "CC(=O)N[C@@H](CO)C(=O)N[C@@H](CCC(N)=O)C(=O)N[C@@H](CC(C)C)C(=O)N[C@@H](CCCNC(=N)N)C(=O)c1nccs1"
  labelClass: 0.0
- compound: "CC(=O)N[C@H]1Cc2ccc(cc2)OCCCC[C@@H](C(=O)N[C@@H](CCCNC(=N)N)C(=O)c2nc3ccccc3s2)NC(=O)[C@@H](Cc2c[nH]c3ccccc23)NC1=O [VD4162B]"
  labelClass: 1.0
- compound: "CC(=O)N[C@@H](CO)C(=O)N[C@@H](CCCCN)C(=O)N[C@@H](Cc1ccccc1)C(=O)N[C@@H](CCCNC(=N)N)C(=O)c1nccs1"
  labelClass: 1.0
- compound: "CC(=O)N[C@@H](CC(C)C)C(=O)N[C@@H](CCC(N)=O)C(=O)N[C@@H](Cc1ccccc1)C(=O)N[C@@H](CCCNC(=N)N)C(=O)c1nc2ccccc2s1"
  labelClass: 1.0
- compound: "CC(=O)N[C@@H](Cc1c[nH]c2ccccc12)C(=O)N[C@@H](CC(C)C)C(=O)N[C@@H](Cc1ccccc1)C(=O)N[C@@H](CCCNC(=N)N)C(=O)c1nc2ccccc2s1"
  labelClass: 1.0

* * *

Biological target: Factor Xa (Homo sapiens)
Construct: TMPRSS2; Matriptase; Hepsin; HGFA; Thrombin; Factor Xa
Sequence (P00742 235-488 limits assumed): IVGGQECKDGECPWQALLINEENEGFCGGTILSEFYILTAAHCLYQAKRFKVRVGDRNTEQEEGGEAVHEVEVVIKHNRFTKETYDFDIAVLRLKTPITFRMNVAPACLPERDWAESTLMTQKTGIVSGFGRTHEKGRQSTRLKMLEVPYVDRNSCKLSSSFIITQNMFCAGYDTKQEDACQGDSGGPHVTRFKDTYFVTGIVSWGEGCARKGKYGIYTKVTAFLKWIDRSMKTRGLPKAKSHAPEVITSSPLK
Sequence (P00742 41-179 partner limits assumed): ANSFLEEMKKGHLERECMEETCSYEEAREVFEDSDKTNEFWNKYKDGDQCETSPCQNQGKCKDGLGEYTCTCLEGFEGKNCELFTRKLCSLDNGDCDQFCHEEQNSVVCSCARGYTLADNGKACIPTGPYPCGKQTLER
Assay: Fluorogenic assay, Factor Xa
Type: biochemical
Details: read-out: Factor Xa IC50
Numbered stars: 1 amine (or outer) side, 2 acyl side, 3 side chain; on linkers, the order of the positions; unused ones are H or OH. Square brackets hold non-standard residues; d marks the D form. Peptide text beside a SMILES is read from it. X1 = N=C(N)NCCC[C@H](N[*:1])C(=O)c1nc2ccc(C(=O)[*:2])cc2s1; Phe(4-NO2) = N[C@@H](Cc1ccc([N+](=O)[O-])cc1)C(=O)O

- compound: "CC(=O)N[C@H]1C/C=C\\COc2ccc(cc2)C[C@@H](C(=O)N[C@@H](CCCNC(=N)N)C(=O)c2nc3ccccc3s2)NC(=O)[C@H](CC(C)C)NC1=O [VD4051]"
  IC50 [nM]: 8810
- compound: "CSCC[C@H](NC(C)=O)C(=O)N[C@@H](CCC(N)=O)C(=O)N[C@@H](Cc1ccccc1)C(=O)N[C@@H](CCCNC(=N)N)C(=O)c1nc2ccccc2s1 [MM3130]"
  IC50 [nM]: 342
- compound: "N=C(N)NCCC[C@@H](NC(=O)[C@H](Cc1ccccc1)NC(=O)[C@H](CCC(N)=O)NCCc1ccccc1)C(=O)c1nc2ccccc2s1 [CA1033-1]"
  IC50 [nM]: 16800
- compound: "N=C(N)NCCC[C@@H](NC(=O)[C@H](Cc1ccccc1)NC(=O)[C@H](CCC(N)=O)NCc1ccccc1)C(=O)c1nc2ccccc2s1 [CA1022-1]"
  IC50 [nM]: 442
- compound: "CC(=O)N[C@H]1Cc2ccc(cc2)OC/C=C\\C[C@@H](C(=O)N[C@@H](CCCNC(=N)N)C(=O)c2nc3ccccc3s2)NC(=O)[C@@H](Cc2c[nH]c3ccccc23)NC1=O [VD5027]"
  IC50 [nM]: 1360
- compound: "CC(=O)N[C@@H](Cc1c[nH]c2ccccc12)C(=O)N[C@@H](CC(C)C)C(=O)N[C@@H](CCCNC(=N)N)C(=O)c1nc2ccccc2s1 [PK-1-104]"
  IC50 [nM]: 890
- compound: "N=C(N)NCCC[C@H](NC(=O)[C@H](Cc1ccccc1)NC(=O)[C@H](CCC(N)=O)NC(=O)Cc1ccccc1)C(=O)c1nc2ccccc2s1 [CA1018]"
  IC50 [nM]: 212
- compound: "N=C(N)NCCC[C@@H](NC(=O)[C@H](Cc1ccccc1)NC(=O)[C@H](CCC(N)=O)N1CCCCC1)C(=O)c1nc2ccccc2s1 [CA1046-1]"
  IC50 [nM]: 12200
- compound: "CC(=O)N[C@@H](CO)C(=O)N[C@@H](Cc1ccc([N+](=O)[O-])cc1)C(=O)N[C@@H](CC(C)C)C(=O)N[C@@H](CCCNC(=N)N)C(=O)c1nc2ccc(C(=O)N[C@H](C(N)=O)C(C)C)cc2s1 [MM1180] (Ac-S[Phe(4-NO2)]L[X1]V-NH2)"
  IC50 [nM]: 64.2
- compound: "CC(=O)N[C@@H](Cc1c[nH]c2ccccc12)C(=O)N[C@@H](Cc1ccccc1)C(=O)N[C@@H](CCCNC(=N)N)C(=O)c1nc2ccccc2s1 [PK-1-102A1]"
  IC50 [nM]: 21.6
- compound: "CC(=O)N[C@@H](CO)C(=O)N[C@@H](CCCCN)C(=O)N[C@@H](Cc1ccccc1)C(=O)N[C@@H](CCCNC(=N)N)C(=O)c1nccs1 [ZFH6095]"
  IC50 [nM]: 1060
